# Test system: Cyt14 hybrid ribosome (decoding A site of the human cytoplasmic ribosome)
# Type: biochemical
# applied conditions: in vitro translation inhibition, Cyt14 hybrid ribosome
Form field: IC50 Cyt 14 (one value per entry).
// return numeric value only (unit: mg/L, not printed)

// solved cases for IC50 Cyt 14 follow
>>> endpoint_result("CCOC1C(CO)OC(OC2C(N)CC(N)C(O)C2OC2OC(CO)C(OC3OC(CN)C(O)C(O)C3N)C2O)C(N)C1O (stereo not drawn)")
88
>>> endpoint_result("NC[C@@H]1O[C@H](O[C@H]2[C@@H](O)[C@H](O[C@@H]3[C@@H](O)[C@H](N)C[C@H](N)[C@H]3O[C@H]3O[C@H](CO)[C@@H](O)[C@H](O)[C@H]3N)O[C@@H]2CO)[C@H](N)[C@@H](O)[C@@H]1O [Compound 1, paromomycin, reference compound]")
9.4
>>> endpoint_result("NCC[C@H](O)C(=O)N[C@@H]1C[C@H](N)[C@@H](O[C@H]2O[C@H](CN)[C@@H](O)[C@H](O)[C@H]2O)[C@H](O)[C@H]1O[C@H]1O[C@H](CO)[C@@H](O)[C@H](N)[C@H]1O")
90
>>> endpoint_result("CNC(C)C1CCC(N)C(OC2C(N)CC(N)C(OC3OCC(C)(O)C(NC)C3O)C2O)O1 (stereo not drawn)")
33
>>> endpoint_result("NC[C@H]1O[C@H](O[C@H]2[C@H](O)[C@@H](O[C@H]3O[C@H](CO)[C@@H](O)[C@H](N)[C@H]3O)[C@H](N)C[C@@H]2N)[C@H](N)C[C@@H]1O")
27

Query string: Supply reported IC50 Cyt 14 belonging to this molecule: CCC1C(CO)OC(OC2C(N)CC(N)C(O)C2OC2OC(CO)C(OC3OC(CN)C(O)C(O)C3N)C2O)C(N)C1O (stereo not drawn)
Result string: 112
